# Test system: Plasmodium falciparum Dd2 asexual blood stage parasites
# PROTOCOL_DESCRIPTION: microbe, parasite or virus in culture
# Set-up: species or system Plasmodium falciparum Dd2 in human erythrocytes; single determination (one 11-point concentration-response curve)
# MEASUREMENT_CONTEXT: Plasmodium falciparum, DD2, Erythrocyte, 72 h; read-out: AC50
RESULT_TYPE: AC50 (µM)
Answers are plain numbers, in µM.

Examples with answers:
>>> value("Cc1ccc(-c2nc(NC(=O)c3cc(C(C)(C)C)nn3C)sc2C)cc1Cl")
10.6
>>> value("O=C(NC1CC1)c1ccccc1OCC1CCCN(Cc2cccc3[nH]ccc23)C1 (stereo not drawn)")
5.96

I need AC50 for every entry listed below, if you could help.
1. CC1=C(C(=O)Nc2ccccc2)C(c2cc(Br)ccc2F)n2ncc(C(=O)Nc3ccccc3)c2N1 (stereo not drawn)
2. CCc1nc2c(c(-c3ccc(O)cc3)n1)CCN(Cc1ccc(OC(F)(F)F)cc1)CC2
3. CCCN1CCN(CCCNC(=O)c2ccc3c(c2)sc2nc(-c4ccc(OC)cc4)cn23)CC1

## Result
1.68
1.5
4.73
